# Test system: 786-0
# test details: NCI tumour cell line growth inhibition, 48 h
Active and inactive are the calls of the source. Cut-off read from the data, not from the text of the source: active = GI50 up to about 1.1 µM and inactive = higher.
quantity name: GI50

Sample answers from the record:
{"columns": ["compound", "GI50"],
 "data": [
  ["COc1nc2ncc([C@@H](O)[C@H](O)CO)nc2c(=O)n1C", "> 100 µM (inactive)"],
  ["CC1=C(C)C(=O)C2=C(OCCO2)C1=O", "22.5 µM (inactive)"]
]}

Task: What value of measured GI50 is listed for COc1ccccc1N1C(=O)/C(=C\c2cccc(Oc3ccccc3)c2)SC1c1ccccc1 (stereo unspecified) ?
Output: 39.2 µM (inactive)

Task: For `NNc1ncnc2cccc(Cl)c12` then?
Output: > 100 µM (inactive)

###

# System: HCC 2998
# test details: NCI tumour cell line growth inhibition, 48 h
Activity calls are given as the source filed them. No stated cut-off is given here; in the data, active = GI50 up to about 1.1 µM and inactive = higher.
Parameter call: string, one of active, inactive

Previously resolved entries follow.
{"columns": ["compound", "class label"],
 "data": [
  ["COc1cc([C@@H]2OC(=O)C3C2C(=O)O[C@H]3c2ccc(O)c(OC)c2)ccc1O (stereo partly specified)", "inactive"],
  ["O=C(c1ccccc1)c1cc(Cl)ccc1NCn1nnc2ccccc21", "inactive"],
  ["CC(=O)OC1CC2C(C)(C)C(=O)C=C[C@]2(C)C2CCC3(C)C(c4ccoc4)C(=O)C4OC43[C@]12C (stereo partly specified)", "inactive"]
]}

Task: Check the results log: what was the call for `CC1=C(C)C(=O)C2=C(OCCO2)C1=O` ?
Output: inactive

###

# System: TK-10
# test details: NCI tumour cell line growth inhibition, 48 h
Activity calls are given as the source filed them. Rule as the data show it: active = GI50 up to about 1.1 µM and inactive = higher.
quantity name: GI50

Check out these entries, answers already filled in.
{"columns": ["compound", "GI50"],
 "data": [
  ["CC1OC(OC2C(OC(=O)[C@]34CCC(C)(C)CC3C3=CCC5[C@@]6(C)C[C@H](O)[C@H](OC7OC(COC8OC(CO)C(O)C(O)C8O)C(O)C(O)C7O)[C@@](C)(C(=O)O)C6CC[C@@]5(C)C3(C)CC4)OCC(O)C2O)C(O)C(O)C1OC1OCC(O)C(O)C1O (stereo partly drawn)", "> 100 µM (inactive)"],
  ["CC(C)(C)OC(=O)C(C1NC(C(=O)O)C(C)(C)S1)N1C(=O)c2ccccc2C1=O (stereo not drawn)", "> 100 µM (inactive)"]
]}

Turning to the following compound.
Task: Please give the measured GI50 for this compound: COC(=O)C(=O)C(C(=O)C(=O)Nc1cccc(C(C)=O)c1)c1nc2ccc([N+](=O)[O-])cc2nc1O (stereo not drawn)
Output: > 100 µM (inactive)

###

# Tested on: OVCAR-3
# test details: NCI tumour cell line growth inhibition, 48 h
Activity calls are given as the source filed them. Rule as the data show it: active = GI50 up to about 1.1 µM and inactive = higher.
quantity name: GI50

Examples from the recorded data:
{"columns": ["compound", "quantity name", "obs value"],
 "data": [
  ["O=S(=O)(c1ccc(Br)cc1)N1CCN(S(=O)(=O)c2ccc(Br)cc2)CC1", "GI50", "> 100 µM (inactive)"],
  ["CCOC(=O)C1(c2ccccc2)CCCNCC1 (stereo unspecified)", "GI50", "74.6 µM (inactive)"],
  ["COC(=O)c1ccc(NCc2cc(OC)ccc2OC)cc1", "GI50", "59.2 µM (inactive)"]
]}

Task: Given the compound `C[N+]1(C)CN(c2ccccc2)C2(CCN(CCCC(=O)c3cccs3)CC2)C1=O` , what is its reported GI50?
Output: 94.2 µM (inactive)

Task: Repeat with Cc1ccc(S(=O)(=O)CN2C(=O)C(c3ccccc3)(c3ccccc3)C23OC(c2ccc(Cl)cc2)=CC3=O)cc1 (stereo unspecified)
Output: > 10 µM (inactive)

Task: Same question for COc1ccc2[nH]cc(CCNC(C)=O)c2c1 [MELATONIN] please.
Output: > 100 µM (inactive)

Task: Same question, `COc1cc(N)c2[nH]c3c(C)ccc(C)c3c2c1` this time
Output: > 100 µM (inactive)

Task: // same read-out, input: `CC(C)(C)C1=CC(=C(c2ccc(-c3c4nc(c(-c5ccc(C(=C6C=C(C(C)(C)C)C(=O)C(C(C)(C)C)=C6)c6cc(C(C)(C)C)c(O)c(C(C)(C)C)c6)cc5)c5ccc([nH]5)c(-c5ccc(C(=C6C=C(C(C)(C)C)C(=O)C(C(C)(C)C)=C6)c6cc(C(C)(C)C)c(O)c(C(C)(C)C)c6)cc5)c5nc(c(-c6ccc(C(=C7C=C(C(C)(C)C)C(=O)C(C(C)(C)C)=C7)c7cc(C(C)(C)C)c(O)c(C(C)(C)C)c7)cc6)c6ccc3[nH]6)C=C5)C=C4)cc2)c2cc(C(C)(C)C)c(O)c(C(C)(C)C)c2)C=C(C(C)(C)C)C1=O`
Output: > 100 µM (inactive)

Data origin, for the record: ChEMBL document CHEMBL1201862
